molecular target: Muscarinic acetylcholine receptor M2 (Sus scrofa, UniProt P06199); assay: Reduction of dissociation rate of [3H]N-methylscopolamine ([3H]NMS) from muscarinic acetylcholine receptor M2 of pig heart
Measured Metric: EC50 (µM)
Give bare numbers, in µM.

Examples from the recorded data:
- N#Cc1cc[n+](CCC[n+]2ccc(/C=N/OCc3c(Cl)cccc3Cl)cc2)cc1: 17
- CO/N=C/c1cc[n+](CCC[n+]2ccc(/C=N/OCc3c(Cl)cccc3Cl)cc2)cc1: 4.5
- Clc1cccc(Cl)c1CO/N=C/c1cc[n+](CCC[n+]2ccccc2)cc1: 21
- CC[N+](CC)(CC)CCC[n+]1ccc(/C=N/OCc2c(Cl)cccc2Cl)cc1: 23
- CCC[n+]1ccc(/C=N/OCc2c(Cl)cccc2Cl)cc1: 26
- Clc1cccc(Cl)c1CO/N=C/c1cc[n+](CCCc2ccccc2)cc1: 9.4
- Cc1cc[n+](CCC[n+]2ccc(/C=N/OCc3c(Cl)cccc3Cl)cc2)cc1: 12
- CN(C)c1cc[n+](CCC[n+]2ccc(/C=N/OCc3c(Cl)cccc3Cl)cc2)cc1: 4.2

Give EC50 for each listed item.
1. Clc1cccc(Cl)c1CO/N=C/c1cc[n+](CCC[n+]2ccc(/C=N/OCc3c(Cl)cccc3Cl)cc2)cc1
2. COc1ccc(CCC[n+]2ccc(/C=N/OCc3c(Cl)cccc3Cl)cc2)cc1

Ans:
1. 4.7
2. 6

Give EC50 for each listed item.
1. C[N+](C)(C)CCC[n+]1ccc(/C=N/OCc2c(Cl)cccc2Cl)cc1
2. O/N=C/c1cc[n+](CCC[n+]2ccc(/C=N/OCc3c(Cl)cccc3Cl)cc2)cc1

Ans:
25
11

* * *

assay: Partition coefficient (logP); type: physicochemical; conditions: octanol/water
Measured Metric: logP

Examples from the recorded data:
• O/N=C/c1cc[n+](CCC[n+]2ccc(/C=N/OCc3c(Cl)cccc3Cl)cc2)cc1 = 1.7
• Clc1cccc(Cl)c1CO/N=C/c1cc[n+](CCCc2ccccc2)cc1 = 0.5
• COc1ccc(CCC[n+]2ccc(/C=N/OCc3c(Cl)cccc3Cl)cc2)cc1 = 0.3

Give logP for each listed item.
1. C[N+](C)(C)CCC[n+]1ccc(/C=N/OCc2c(Cl)cccc2Cl)cc1
2. CC[N+](CC)(CC)CCC[n+]1ccc(/C=N/OCc2c(Cl)cccc2Cl)cc1
3. Cc1cc[n+](CCC[n+]2ccc(/C=N/OCc3c(Cl)cccc3Cl)cc2)cc1
4. CO/N=C/c1cc[n+](CCC[n+]2ccc(/C=N/OCc3c(Cl)cccc3Cl)cc2)cc1
5. Clc1cccc(Cl)c1CO/N=C/c1cc[n+](CCC[n+]2ccc(/C=N/OCc3c(Cl)cccc3Cl)cc2)cc1

Ans:
1.7
1.4
1.3
-2
0.6

Give logP for each listed item.
1. CN(C)c1cc[n+](CCC[n+]2ccc(/C=N/OCc3c(Cl)cccc3Cl)cc2)cc1
2. CCC[n+]1ccc(/C=N/OCc2c(Cl)cccc2Cl)cc1

Ans:
1. 1.5
2. 0.6

* * *

Target: Muscarinic acetylcholine receptor M2 (Sus scrofa) (UniProt P06199)
Sequence (whole entry): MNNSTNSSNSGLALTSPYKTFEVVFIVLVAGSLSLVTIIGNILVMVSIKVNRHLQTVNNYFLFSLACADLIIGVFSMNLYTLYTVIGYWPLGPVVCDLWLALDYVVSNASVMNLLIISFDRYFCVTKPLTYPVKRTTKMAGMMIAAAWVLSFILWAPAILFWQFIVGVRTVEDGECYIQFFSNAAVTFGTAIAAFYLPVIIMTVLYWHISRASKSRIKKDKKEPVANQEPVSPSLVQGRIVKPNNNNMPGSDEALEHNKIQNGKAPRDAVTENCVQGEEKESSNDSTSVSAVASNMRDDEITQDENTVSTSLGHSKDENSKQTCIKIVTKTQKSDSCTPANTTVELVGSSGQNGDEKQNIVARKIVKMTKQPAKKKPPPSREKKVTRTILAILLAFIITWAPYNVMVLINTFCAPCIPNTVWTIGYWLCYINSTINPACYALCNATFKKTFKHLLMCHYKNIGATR
Assay: Hill coefficient, slope factors of reduction in dissociation rate of [3H]NMS from M2 receptor of pig heart
Task for the reader: assign each of the following molecules its reported nH.
Answers are plain numbers.

Examples from the recorded data:
* CCC[n+]1ccc(/C=N/OCc2c(Cl)cccc2Cl)cc1 | 1.2
* CN(C)c1cc[n+](CCC[n+]2ccc(/C=N/OCc3c(Cl)cccc3Cl)cc2)cc1 | 1.3
* Cc1cc[n+](CCC[n+]2ccc(/C=N/OCc3c(Cl)cccc3Cl)cc2)cc1 | 1.1
* CC[N+](CC)(CC)CCC[n+]1ccc(/C=N/OCc2c(Cl)cccc2Cl)cc1 | 0.9
* O/N=C/c1cc[n+](CCC[n+]2ccc(/C=N/OCc3c(Cl)cccc3Cl)cc2)cc1 | 1.3
* Clc1cccc(Cl)c1CO/N=C/c1cc[n+](CCCc2ccccc2)cc1 | 1.2
* COc1ccc(CCC[n+]2ccc(/C=N/OCc3c(Cl)cccc3Cl)cc2)cc1 | 1.5
* Clc1cccc(Cl)c1CO/N=C/c1cc[n+](CCC[n+]2ccc(/C=N/OCc3c(Cl)cccc3Cl)cc2)cc1 | 1.7
* CO/N=C/c1cc[n+](CCC[n+]2ccc(/C=N/OCc3c(Cl)cccc3Cl)cc2)cc1 | 1.2
* Clc1cccc(Cl)c1CO/N=C/c1cc[n+](CCC[n+]2ccccc2)cc1 | 1.2

Please examine the following record next.
Lab note: N#Cc1cc[n+](CCC[n+]2ccc(/C=N/OCc3c(Cl)cccc3Cl)cc2)cc1 gave nH of 1.1
